tested on: Human immunodeficiency virus 1; experiment: Antiviral activity against HIV1 3B infected in human CEM cells assessed as reduction in virus-induced cytopathicity after 4 to 5 days by microscopy based syncytium cell formation assay; assay type: functional, organism-based, CCRF-CEM; settings: Human immunodeficiency virus 1, 3B, CCRF-CEM; read-out: EC50
We begin with a simple list: items and their reported pEC50.
To interpret pEC50, take it as minus log10 of a concentration measured in moles per litre.

Here's what some known entries look like.
# cpd_smiles, pEC50
data = [
    ("O=C(NCCCCN(CCCNC(=O)c1cc(O)c(O)c(O)c1)C(=O)c1cc(O)c(O)c(O)c1)c1cc(O)c(O)c(O)c1", 4.74),
    ("O=C(NCCN(CCNC(=O)c1cc(O)c(O)c(O)c1)CCNC(=O)c1cc(O)c(O)c(O)c1)c1cc(O)c(O)c(O)c1", 5.00),
    ("O=C(NCCN(CCN(CCN(CCNC(=O)c1cc(O)c(O)c(O)c1)C(=O)c1cc(O)c(O)c(O)c1)C(=O)c1cc(O)c(O)c(O)c1)C(=O)c1cc(O)c(O)c(O)c1)c1cc(O)c(O)c(O)c1", 5.31),
]

// next entry
Give recorded pEC50. "O=C(NCCCCNC(=O)c1cc(O)c(O)c(O)c1)c1cc(O)c(O)c(O)c1"
5.28

====

Quick reference for log10(CC50) among some molecules
test: Cytotoxicity against human CEM cells assessed as inhibition of cell proliferation; assay type: cell-based; details: CEM cells (CCRF-CEM)
In our notation, the value equals log10 of CC50 in µM.

Recorded log10(CC50), per entry:
# molecule, test_value
records = [
    ("CCOC(=O)c1cc(O)c(O)c(O)c1 [ETHYLGALLATE]", 1.36),
    ("O=C(NCCNC(=O)c1ccccc1O)c1ccccc1O", 1.40),
    ("O=C(NCCCCCCCCCCNC(=O)c1cc(O)c(O)c(O)c1)c1cc(O)c(O)c(O)c1", 1.93),
    ("O=C(NCCCCNC(=O)c1cccc(O)c1O)c1cccc(O)c1O", 0.72),
    ("O=C(NCCCCCCCCCCCCNC(=O)c1cccc(O)c1O)c1cccc(O)c1O", 0.68),
]

Return log10(CC50) (reported value) for this molecule: "O=C(OCCCCCCCCOC(=O)c1cc(O)c(O)c(O)c1)c1cc(O)c(O)c(O)c1"
1.11

For "O=C(NCCCCN(CCCNC(=O)c1ccc(O)c(O)c1O)C(=O)c1ccc(O)c(O)c1O)c1ccc(O)c(O)c1O" , write its log10(CC50).
1.43

Using the record for CCCCCOC(=O)c1cc(O)c(O)c(O)c1 [PENTYL GALLATE] , state its measured log10(CC50).
1.67

====

tested on: Hepatitis C virus; assay: Antiviral activity against HCV genotype 1b I389luc-ubi-neo/NS3-3'/5.1 replicons infected in human Huh5-2 HCV subgenomic replicon-containing cells assessed as reduction in virus replication after 3 days by luciferase reporter gene assay; format: functional, Hepacivirus hominis
parameter_measured: EC50

Would you please look over these solved cases?
# cpd_smiles, EC50
measured = [
    ("COc1cc(C(=O)NCCCCCCCCCCCCNC(=O)c2cc(OC)c(OC)c(OC)c2)cc(OC)c1OC", "Not Active"),
    ("O=C(NCCCCCCNC(=O)c1ccc(OCc2ccccc2)c(OCc2ccccc2)c1OCc1ccccc1)c1ccc(OCc2ccccc2)c(OCc2ccccc2)c1OCc1ccccc1", "Not Active"),
    ("COc1cc(C(=O)NCCCCCCCCCCNC(=O)c2cc(OC)c(OC)c(OC)c2)cc(OC)c1OC", "Not Active"),
    ("O=C(NCCCCCCCCCCCCNC(=O)c1ccc(OCc2ccccc2)c(OCc2ccccc2)c1OCc1ccccc1)c1ccc(OCc2ccccc2)c(OCc2ccccc2)c1OCc1ccccc1", "Not Active"),
    ("COc1cc(C(=O)NCCCCNC(=O)c2cc(OC)c(OC)c(OC)c2)cc(OC)c1OC", "Not Active"),
    ("COc1cccc(C(=O)NCCCCCCCCCCCCNC(=O)c2cccc(OC)c2OC)c1OC", "Not Active"),
]

Name the recorded EC50 of "O=C(NCCCOCCOCCOCCCNC(=O)c1ccc(OCc2ccccc2)c(OCc2ccccc2)c1OCc1ccccc1)c1ccc(OCc2ccccc2)c(OCc2ccccc2)c1OCc1ccccc1" , assay system Hepatitis C virus.
Not Active

For Hepatitis C virus, give EC50 of the listed molecule: "O=C(NCCCCNC(=O)c1ccccc1OCc1ccccc1)c1ccccc1OCc1ccccc1"
Not Active

Give the observed EC50 of "COc1cccc(C(=O)NCCNC(=O)c2cccc(OC)c2OC)c1OC" for Hepatitis C virus.
Not Active

====

test system: Hepatitis C virus; test: Antiviral activity against HCV genotype 1b I389luc-ubi-neo/NS3-3'/5.1 replicons infected in human Huh5-2 HCV subgenomic replicon-containing cells assessed as reduction in virus replication after 3 days by luciferase reporter gene assay; type: functional, Hepacivirus hominis; settings: Hepatitis C virus, genotype 1b, Huh-5-2, 72 h
EC90 for assorted molecules
Field: numeric (µM). Do not append units.

Check out these entries, answers already filled in.
# cpd_smiles, target_system, units, test_value
measured = [
    ("O=C(OCCCCCCCCCCCCOC(=O)c1cc(O)c(O)c(O)c1)c1cc(O)c(O)c(O)c1", "Hepatitis C virus", "µM", 37),
    ("O=C(NCCCCCCCCCCCCNC(=O)c1cccc(O)c1O)c1cccc(O)c1O", "Hepatitis C virus", "µM", 4.8),
]

Below: the item to evaluate.
Give the measured EC90 for "O=C(NCCCCCCCCCCCCNC(=O)c1ccc(O)c(O)c1O)c1ccc(O)c(O)c1O"
6.1

====

experiment: Cytotoxicity against human Huh5-2 cells after 72 hrs by MTS assay; format: cell-based, Huh-5-2
Let's look at some compounds and their measured CC50 at 72 h.

Here's what some known entries look like.
# compound, test_value
records = [
    ("O=C(NCCCCNC(=O)c1ccc(O)c(O)c1O)c1ccc(O)c(O)c1O", "> 50 µM"),
    ("O=C(NCCCCCCCCCCCCNC(=O)c1cccc(O)c1O)c1cccc(O)c1O", "108 µM"),
    ("O=C(NCCCCCCNC(=O)c1cc(O)c(O)c(O)c1)c1cc(O)c(O)c(O)c1", "24 µM"),
    ("CCC[C@H](NC(=O)[C@@H]1[C@H]2CCC[C@H]2CN1C(=O)[C@@H](NC(=O)[C@@H](NC(=O)c1cnccn1)C1CCCCC1)C(C)(C)C)C(=O)C(=O)NC1CC1", "47 µM"),
    ("O=C(NCCCCCCCCNC(=O)c1cc(O)c(O)c(O)c1)c1cc(O)c(O)c(O)c1", "> 50 µM"),
]

Please indicate CC50 at 72 h recorded for "O=C(NCCCOCCOCCOCCCNC(=O)c1ccc(O)c(O)c1O)c1ccc(O)c(O)c1O"
49 µM

Give the reported CC50 at 72 h for this compound. "O=C(NCCCCCCCCCCNC(=O)c1ccc(O)c(O)c1O)c1ccc(O)c(O)c1O"
> 100 µM

Answer with the recorded CC50 at 72 h of "O=C(OCCCCCCCCOC(=O)c1cc(O)c(O)c(O)c1)c1cc(O)c(O)c(O)c1" only.
80 µM

Identify CC50 at 72 h associated with the compound CCCCCCOC(=O)c1cc(O)c(O)c(O)c1 [HEXYL GALLATE]
> 50 µM

Quickly give me recorded CC50 at 72 h for "O=C(NCCCCCCCCCCCCNC(=O)c1ccc(O)c(O)c1O)c1ccc(O)c(O)c1O"
> 100 µM

For the compound "O=C(NCCN(CCNC(=O)c1cc(O)c(O)c(O)c1)CCNC(=O)c1cc(O)c(O)c(O)c1)c1cc(O)c(O)c(O)c1" , give its reported CC50 at 72 h.
> 2.9 µM

State its CC50 at 72 h: "O=C(NCCCCCCCCNC(=O)c1ccc(O)c(O)c1O)c1ccc(O)c(O)c1O"
34 µM

Item "O=C(NCCCCCCNC(=O)c1ccc(O)c(O)c1O)c1ccc(O)c(O)c1O" : provide CC50 at 72 h
32 µM

State its CC50 at 72 h for this compound: "O=C(NCCCCNC(=O)c1cc(O)c(O)c(O)c1)c1cc(O)c(O)c(O)c1"
29 µM

Please look at this compound and report its CC50 at 72 h: "COc1ccc(C(=O)NCCCCCCCCCCCCNC(=O)c2ccc(OC)c(OC)c2OC)c(OC)c1OC"
5.4 µM

Please list CC50 at 72 h recorded for the compound "O=C(NCCN(CCNC(=O)c1ccc(O)c(O)c1O)CCNC(=O)c1ccc(O)c(O)c1O)c1ccc(O)c(O)c1O"
> 3.7 µM

Give the value of CC50 at 72 h reported for the following: CCCCCCCCCCCCOC(=O)c1cc(O)c(O)c(O)c1 [DODECYL GALLATE]
8.9 µM

Please give measured CC50 at 72 h of the following entry: "O=C(OCCCCCCOC(=O)c1cc(O)c(O)c(O)c1)c1cc(O)c(O)c(O)c1"
> 50 µM

Give CC50 at 72 h for the following compound: CCOC(=O)c1cc(O)c(O)c(O)c1 [ETHYLGALLATE]
45 µM

Quickly give me recorded CC50 at 72 h for "O=C(OCCCCCCCCCCCCOC(=O)c1cc(O)c(O)c(O)c1)c1cc(O)c(O)c(O)c1"
> 50 µM
